Source: paper PMC9352680

# target-entity: T1, PUF4 RNA-binding domain (Saccharomyces cerevisiae, UniProt P25339 537-888)
# T1 sequence: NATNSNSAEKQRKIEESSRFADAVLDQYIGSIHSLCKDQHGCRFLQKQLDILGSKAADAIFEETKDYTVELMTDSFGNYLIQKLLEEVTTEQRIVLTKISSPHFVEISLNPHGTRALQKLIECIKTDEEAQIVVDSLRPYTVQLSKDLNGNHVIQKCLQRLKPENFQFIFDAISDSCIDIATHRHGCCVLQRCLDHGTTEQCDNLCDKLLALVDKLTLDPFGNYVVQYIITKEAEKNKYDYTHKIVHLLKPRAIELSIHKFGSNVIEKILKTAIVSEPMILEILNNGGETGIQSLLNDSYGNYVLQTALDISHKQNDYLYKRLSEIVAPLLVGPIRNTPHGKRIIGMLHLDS
# test-summary: Mg; RNA-MaP; 20 mM Na-HEPES pH 7.4, 30 mM KOAc, 0.75 mM MgCl2, 0.1% Tween-20, 5% glycerol, 0.1 mg/mL BSA, 2 mM DTT; 25 C; 0.0125-409.6 nM protein
# measurement-conditions: tags: N-His6-TEV cleaved; C-SNAP kept, Cy3B-labelled; label: tethered on chip by stalled RNA polymerase
Assignment: determine reported Kd for the given binders.
Value expressed in nM; do not type the unit.

Value of Kd reported for the binder UCUCUUUGUAUAUCUCUUUAUCUCUU (ssRNA) [Ie_S1_P4E.1_K4.1_C4.1_H4.1_A4.1_[+6TCTCT]_F4.1_T4.1] is 14.7

Lookup result for Id_ii_S4_P4E.3_K4.2_C4.2_[C-2A]_[T-1C]_H4.2_A4.1_F4.1_T4.2_[G10T]_[T11A] (ssRNA) RNA: UUUGACAACUGAUCGUUCUUUCUACUAUAUAUUAUAUUCUUUCUCGAUCAGUUGUCUUU ; measured Kd: 24.6

Value of measured Kd for the entry Ic_S2_P3E.1_K3.1_C3.1_H3.1_A3.1_[T5C]_F3.1_[T7C]_[A8T]_T3.1 (ssRNA) RNA: UUUGAUUAAUAUGAUAUCGUUCUUUCUUGUACACUUUCUUUCUCGAUAUCAUAUUAAUCUUU : 2.64

// Kd lookup, binder = UCUCUUUGUAUUCCCUAUUAUCUCUU (ssRNA) [Ie_S1_P5E.1_K5.1_C5.1_H5.1_A5.1_[+6CCCT]_F5.1_T5.1] , result: 32.4

Sample Ie_S4_P4E.1_K4.1_C4.1_H4.1_A4.1_[+6CTC]_F4.1_T4.1 (ssRNA) RNA: UUUGACAACUGAUCGUUCUUUCUUGUAUACUCUUAUUCUUUCUCGAUCAGUUGUCUUU ; Kd observed: 10.3

Noted for Ib_S4_P5E.1_K5.1_C5.1_H5.1_A5.1_[A7G]_F5.1_[T8C]_T5.1 (ssRNA) RNA: UUUGACAACUGAUCGUUCUUUCUUGUAUUGCUAUUCUUUCUCGAUCAGUUGUCUUU : its Kd reads 14.9

The value of Kd measured for the binder UCUCUUUGUAUUCAUCUCUU (ssRNA) [Ib_S1_P3E.1_K3.1_C3.1_H3.1_A3.1_[A6T]_F3.1_[T7C]_T3.1] turned out to be 296

For UCUCUUCCUCUUGUAUAUAUAUCUCUU (ssRNA) [Ie_S1_P3E.2_K3.1_C3.2_[+-2CTC]_H3.1_A3.1_F3.1_T3.2] the binder record lists Kd as 7.17

The value of Kd measured for the binder UCUCUUUGUUCAUAUUAUCUCUU (ssRNA) [Ie_S1_P4E.1_K4.1_C4.1_H4.1_[+3TC]_A4.1_F4.1_T4.1] turned out to be 134

The binder identified as UCUCUUCCUGUAUAUAUCUCUCUU (ssRNA) [Id_ii_S1_P3E.2_K3.1_C3.2_[T-1C]_H3.1_A3.1_F3.1_T3.2_[A10C]] registered its Kd at 4.74

Input UCUCUUAUCACACUAUAUAUCUCUU (ssRNA) [Id_i_S1_P3E.7_K3.3_C3.3_[T-3A]_[C-2T]_[T-1C]_H3.3_A3.1_F3.1_T3.2] . Output Kd: 1520

Lab book: Kd of UCUCUUUGUAACUGUUCUCUU (ssRNA) [Ic_S1_P4E.1_K4.1_C4.1_H4.1_A4.1_[T5A]_[A6C]_F4.1_[T8G]_[A9T]_T4.1] noted as 360

Record Ie_S2_P5E.1_K5.1_C5.1_H5.1_A5.1_F5.1_[+8CCC]_T5.1 (ssRNA) RNA: UUUGAUUAAUAUGAUAUCGUUCUUUCUUGUAUUAUCCCUAUUCUUUCUCGAUAUCAUAUUAAUCUUU . Reported Kd: 12.8
